Here we list molecules with their recorded Ki when tested on 5-hydroxytryptamine receptor 1A (Rattus norvegicus, UniProt P19327).
Sequence (P19327 whole entry): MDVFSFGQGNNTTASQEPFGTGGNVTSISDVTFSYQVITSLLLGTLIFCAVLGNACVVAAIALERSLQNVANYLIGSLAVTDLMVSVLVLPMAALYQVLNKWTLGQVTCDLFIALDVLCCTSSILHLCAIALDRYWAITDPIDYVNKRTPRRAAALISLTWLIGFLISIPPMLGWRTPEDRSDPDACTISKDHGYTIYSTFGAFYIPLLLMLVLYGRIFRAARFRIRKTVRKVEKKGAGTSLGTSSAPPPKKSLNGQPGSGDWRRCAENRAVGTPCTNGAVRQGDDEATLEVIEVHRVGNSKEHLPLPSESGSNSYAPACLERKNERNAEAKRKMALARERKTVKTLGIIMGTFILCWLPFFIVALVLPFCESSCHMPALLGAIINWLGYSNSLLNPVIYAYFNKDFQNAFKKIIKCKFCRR
endpoint_label: Ki (µM)

CN(C)CCc1c(C(=O)NCc2ccccc2)[nH]c2ccc(CCN3C(=O)NC(C)(C)C3=O)cc12 | 14.8
CN(C)CCc1c(C(=O)NCc2ccccc2)[nH]c2ccc(CCN3C(=O)CNC3=O)cc12 | 67.6

---

target_system: 5-hydroxytryptamine receptor 2C (Rattus norvegicus, UniProt P08909)
Sequence (P08909 whole entry): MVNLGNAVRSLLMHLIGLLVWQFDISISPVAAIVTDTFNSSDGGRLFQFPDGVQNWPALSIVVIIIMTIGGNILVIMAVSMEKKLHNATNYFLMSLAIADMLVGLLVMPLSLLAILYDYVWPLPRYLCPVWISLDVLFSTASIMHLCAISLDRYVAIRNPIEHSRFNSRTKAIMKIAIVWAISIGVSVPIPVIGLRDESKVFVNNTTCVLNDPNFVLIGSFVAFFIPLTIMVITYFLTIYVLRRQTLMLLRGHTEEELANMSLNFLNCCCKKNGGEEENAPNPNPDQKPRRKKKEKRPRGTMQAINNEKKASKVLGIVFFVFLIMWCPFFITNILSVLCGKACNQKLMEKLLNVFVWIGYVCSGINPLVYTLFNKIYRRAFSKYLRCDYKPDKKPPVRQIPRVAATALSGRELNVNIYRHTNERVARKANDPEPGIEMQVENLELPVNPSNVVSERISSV
pKi: −log10 of the molar value.
Form field: pKi (one value per entry).
endpoint_label: pKi

CN(C)CCc1c(C(=O)NCc2ccccc2)[nH]c2ccc(CCN3C(=O)CNC3=O)cc12 | 5.72
CN(C)CCc1c(C(=O)NCc2ccccc2)[nH]c2ccc(CCN3C(=O)NC(C)(C)C3=O)cc12 | 5.66

---

Test system: Adrenergic receptor alpha-1 (Oryctolagus cuniculus)
assay_procedure: Alpha-1 adrenergic receptor affinity using ring preparations of rabbit thoracic aorta (RbTA).
endpoint_label: pKB

CC(NC(=O)c1[nH]c2ccc(CCN3C(=O)NC(C)(C)C3=O)cc2c1CCN(C)C)c1ccccc1 (stereo not drawn) | 4.65
CN(C)CCc1c(C(=O)NCc2ccc(-c3ccccc3)cc2)[nH]c2ccc(CCN3C(=O)NC(C)(C)C3=O)cc12 | 5
CN(C)CCc1c(C(=O)NCc2cccc(NS(C)(=O)=O)c2)[nH]c2ccc(CCN3C(=O)NC(C)(C)C3=O)cc12 | 4.51
CC(=O)Nc1cccc(CNC(=O)c2[nH]c3ccc(CCN4C(=O)NC(C)(C)C4=O)cc3c2CCN(C)C)c1 | 4.5
CN(C)CCc1c(C(=O)NCc2ccccc2)[nH]c2ccc(CCN3C(=O)C4CCCN4C3=O)cc12 (stereo not drawn) | 5.31
CN(C)CCc1c(C(=O)NCc2ccc(N)cc2)[nH]c2ccc(CCN3C(=O)NC(C)(C)C3=O)cc12 | 4.52
CCOC(=O)c1[nH]c2ccc(CCN3C(=O)CNC3=O)cc2c1CCN(C)C | 5.43

---

Test system: Adrenergic receptor alpha-1 (Oryctolagus cuniculus)
assay_procedure: Alpha-1 adrenergic receptor affinity using ring preparations of rabbit thoracic aorta (RbTA).
endpoint_label: pKB

CN(C)CCc1c(C(=O)NCc2ccc(Cl)c(Cl)c2)[nH]c2ccc(CCN3C(=O)NC(C)(C)C3=O)cc12 | 5
CN(C)CCc1c(C(=O)NCc2ccccc2)[nH]c2ccc(CCN3C(=O)NC4(CCCC4)C3=O)cc12 | 5.48
CN(C)CCc1c(C(=O)Nc2ccccc2)[nH]c2ccc(CCN3C(=O)NC(C)(C)C3=O)cc12 | 4.86
